Assay: NCI Yeast Anticancer Drug Screen. Data for the sgs1 mgt1 strain (AID 161);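 also: 0% = growth of cultures given vehicle only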
Conditions: S. cerevisiae sgs1 mgt1 strain, at 50.0 µM (retest, dose inferred, filed as 5.0), active compounds read high
About 79,000 compounds went through this panel and 15% of them were active in at least one assay; those are over-represented in the sample as a whole.
Returns criterion met if the recorded growth inhibition is greater than or equal to 70%, and criterion not met otherwise.

Determine whether measured growth inhibition meets or exceeds 70% for Cc1cccc(C)c1NC(=O)CCC(=O)C(C)C(=O)c1ccc(O)cc1 (stereo not given)
criterion not met

Note, next up: `CCOC(=O)C(Cc1c2ccccc2cc2ccccc12)(NC(C)=O)C(=O)OCC`
criterion not met

And then `Cc1ccc(NC(Nc2ccc(C)cc2C)=C(C(Cl)=C(Cl)Cl)[N+](=O)[O-])c(C)c1` , what is it?
criterion met

Moving on to the next compound: O=C1SS(=O)c2ccccc21 (stereo not given)
criterion met

Subsequent entry: `CC(=O)O/N=C1C=C/C(=C(/C#N)c2ccccc2)C=C/1C`
criterion met

Next up: `ClCCCOc1c(Cl)cc(Cl)cc1Cl`
criterion not met

Here is the next compound: `CCCCS/C(=C(/C#N)C(N)=O)c1cc2c([nH]1)CCCC2`
criterion not met

Check Cc1cccc2c1C1c3c(C)cccc3C(CC(=O)O)CC1CC2 (stereo not given) too.
criterion met

And what about the compound `CCCNCC(=O)O[C@]1(CC)C(=O)OCc2c1cc1n(c2=O)Cc2cc3ccccc3nc2-1` ?
criterion met

====

Assay: NCI Yeast Anticancer Drug Screen. Data for the CLN2oe strain (AID 163);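 also: 0% = growth of vehicle-only control cultures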
Conditions: S. cerevisiae CLN2oe strain, at 33.0 µM, active compounds read high
Compounds without any hit were thinned out: in the full panel of roughly 79,000, 15% have a hit.
Rule: MET for growth inhibition not less than 20%, NOT MET for anything less.

Is the recorded value of growth inhibition equal to or greater than 20% for this compound? `COc1ccc2nc(CCc3ccccc3)ccc2c1`
NOT MET

Subsequent entry: COc1ccc(C(C)c2cc3c(cc2OCC(C)=O)OCO3)cc1 (stereo not given)
NOT MET

Field entry: `c1cc(-c2sc(-c3ccncc3)c(-c3ccncc3)c2-c2ccncc2)ccn1`
MET

And what about the compound O=S(=O)(NC1CCCC(c2ccccc2)C1)c1ccccc1 (stereo not given) ?
NOT MET

Please give the result for `Cc1cc(O)c(C(C)C)cc1SC#N` too.
MET

====

Can you tell me growth inhibition for the items I'm about to list?
Experiment: NCI Yeast Anticancer Drug Screen. Data for the rad14 strain (AID 159);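 also: 0% = growth of vehicle-treated control cultures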
Conditions: S. cerevisiae rad14 strain growth inhibition; at 1.2 µM; active compounds read high
About 79,000 compounds went through this panel and 15% of them were active in at least one assay; those are over-represented in the sample as a whole.
# unit: % | format: bare number

Endpoint output: growth inhibition of `O=C(/C=C/c1ccsc1)c1cccs1` . Value?
3

Thanks! And `CNC(=S)N/N=C(/C)CCC/C(C)=N/NC(=S)NC` ?
30

Param item: `CCOC(=S)SSSC(=S)OCC`
0

How about `O=C(C(Cl)=C(N1CCCCC1)N1CCCCC1)C(Cl)Cl` ?
-3

What about `O=S(=O)(NNc1ccccc1)c1ccccc1` ?
-2

Please give the result for `CC1=C(C)C(=O)C2=C(OCCO2)C1=O` too.
-1

Proceed to `NCCOc1ccc(/C(=C(/Cl)c2ccccc2)c2ccccc2)cc1`
-16

Subsequent entry: `OC1(C#CI)CCCCC1`
-2

Note, next up: N#CSCC1COc2ccccc2O1 (configuration not stated)
-20

Try `CC(C)OC(=O)NNc1c(Cl)cc(Cl)cc1Cl` next.
-4

Now this one: `S=C(NCc1ccccn1)N/N=C/c1ccccn1`
98

Same read-out for O=C1c2ccccc2N2OC3(N4CCCC4)CCCCC3C12c1ccccc1 (configuration not stated) ?
-23

One more molecule: `Cc1nc2sc3c(c2c(=O)o1)CCCC3`
0

Field entry: O=C1NC(c2cccc(OCc3ccccc3)c2)Nc2ccccc21 (configuration not stated)
-6

Same again, this time with `COC(=O)c1cnc(Cl)c([N+](=O)[O-])c1`
2

Entry CC12CCC(CC(=O)/C1=C(/Br)I)C2(C)C (configuration not stated) please
1

Same question, `CC(C)Cc1ncc(CCCN=C(N)N)[nH]c1=O` this time
0

Note, next up: OC(Cc1cccc2ccccc12)CN1CCC(c2ccccc2)CC1 (configuration not stated)
71

Could you do the same for `N#C/C(=C\NC(=S)Nc1ccc(S(N)(=O)=O)cc1)C(=O)c1ccc2ccccc2c1` , please?
-1

# iterate: `Cc1cc(Cl)ccc1NC(=O)/C(Cl)=C(/Cl)C(=O)O`
2

Also `O=C(NCCNCCNC(=O)c1cc(-c2ccccc2)nc2ccccc12)c1cc(-c2ccccc2)nc2ccccc12` , if possible.
-3

Try `CC1(C)CC(=O)C(/C=N/c2nc(-c3ccc(Br)cc3)cs2)=C(O)C1` next.
6
